Just for reference, ChEMBL document CHEMBL3785015 is where these values come from.

Test: Oral bioavailability in healthy human subjects (6 subjects) at 2.9 mg/kg by HPLC method
Format: ADME, organism-based
Details: in vivo
experimental.endpoint: bioavailability (%)
I only need the number, in %, no unit after it.

IN: What bioavailability value was documented for this compound, CCC1(c2ccccc2)C(=O)NC(=O)NC1=O ?
OUT: 83.4

###

Experiment: Tmax in human
Assay type: ADME, organism-based
Conditions: in vivo
experimental.endpoint: Tmax

IN: What Tmax value was documented for this compound, CCC1(c2ccccc2)C(=O)NC(=O)NC1=O ?
OUT: ≤ 18 h
